# TEST NAME: NCI Yeast Anticancer Drug Screen. Data for the mlh1 rad18 strain (AID 175)
# TEST CONTEXT: S. cerevisiae mlh1 rad18 strain growth inhibition; at 50.0 µM; active compounds read high
The panel holds about 79,000 compounds, 15% with a hit somewhere; the sample as a whole holds those more often.
ENDPOINT NAME: growth inhibition (%)
Give bare numbers, in %.

Past entries and their recorded results:
# COMPOUND, UNIT ABBREV, growth inhibition
measured = [
    ("Cc1ccc2c(c1)sc(C)[n+]2CCO", "%", -18.4),
    ("CC1(C)N=C(N)N=C(N)N1c1cccc(OCCCOc2ccc([N+](=O)[O-])cc2)c1", "%", -26.4),
    ("COC1C=C(Br)C(=O)C(C)O1 (stereo not given)", "%", -1.8),
]

Report growth inhibition for every entry below.
1. O=C1c2ccccc2S(=O)N1OCc1ccccc1 (stereo not given)
2. C=CC(=O)OCCCS(=O)(=O)[O-].C=CC(=O)OCCCS(=O)(=O)[O-].NC1CCCCC1N.[Pt+4]

Response:
1. 9.6
2. 9.75

* * *

# TEST NAME: NCI Yeast Anticancer Drug Screen. Data for the rad50 strain (AID 155);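 also: 0% = growth of vehicle-only cultures of the same strain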
# TEST CONTEXT: S. cerevisiae rad50 strain growth inhibition; at 50.0 µM
Compounds without any hit were thinned out: in the full panel of roughly 79,000, 15% have a hit. The source made the active and inactive calls. No stated cut-off is given here; in the data, active means growth inhibition above about 70%; inactive means the rest.
Parameter call: string, one of active, inactive

# MOLECULE, CLASS NAME
measured = [
    ("Oc1ccc(Cl)cc1-c1cc(-c2ccccc2)nc(=S)[nH]1", "inactive"),
    ("O=C1c2ccccc2C(=O)N1CC(F)(F)F", "inactive"),
    ("Cc1cccc(C)c1NC(=S)NC(=O)c1cccc(Cl)c1", "inactive"),
    ("O=C(O)c1cc(C2CC2)nc2ccccc12", "inactive"),
    ("COc1ccc(C(O)Cc2ccccc2)cc1 (stereo not given)", "inactive"),
]

Query: Please state the recorded outcome for this molecule: Cc1cc(C)c(C(=O)c2ccccc2C(=O)c2ccccc2)c(C)c1
Response: inactive

Query: Just curious, what result did O=S1(=O)C=C(c2ccccc2)C1 get here?
Response: inactive

Query: Outcome logged for Cc1c([N+](=O)[O-])ccc2c1C(=O)c1ccccc1C2=O in this assay:
Response: inactive

Query: // param item: NCCNCc1ccncc1 ; yields the recorded call
Response: inactive

Query: So what was the verdict on C/C(=C\CC1C(=O)N(c2ccccc2)N(c2ccccc2)C1=O)CO in this test?
Response: inactive

Query: Which outcome did this test record for the molecule C/C(CCc1cccc([N+](=O)[O-])c1)=N\NC(N)=O ?
Response: inactive

* * *

# TEST NAME: NCI Yeast Anticancer Drug Screen. Data for the bub3 strain (AID 167)
# TEST CONTEXT: S. cerevisiae bub3 mutant strain, at 50.0 µM, active compounds read high
About 79,000 compounds went through this panel and 15% of them were active in at least one assay; those are over-represented in the sample as a whole.
Give measured growth inhibition for each item. Keep answers brief.
Give bare numbers, in %.

Known results for molecules:
# MOLECULE, UNIT ABBREV, growth inhibition
measured = [
    ("COc1cc(OC)c([N+](=O)[O-])cc1/C=C/C(=O)O", "%", 9.95),
    ("CCCCCCCCC(CO)CCCCCC (stereo not drawn)", "%", -6.4),
    ("CC1c2c(ccc3c2CCC=C3)CCC1CC1=CCCc2ccc3ccccc3c21 (stereo not drawn)", "%", 0.1),
    ("O=C1CSC(c2cccc(Cl)c2)N1CCN1C(=O)CSC1c1cccc(Cl)c1 (stereo not drawn)", "%", 2.75),
    ("CC1SCC(C)(C)NC1=O (stereo not drawn)", "%", 5.7),
]

Below is a list of molecules. For each, state its recorded growth inhibition.
1. CCC1(CC)C(=O)OC(=O)C1(CC)CC
2. O=C1OC(=O)c2ccccc21

Response:
1. -10.9
2. -2.2

Query: Please supply the value of reported growth inhibition for the item Cc1ccc(C(CCl)c2ccc(C)cc2)cc1
Response: -21.5

Hey, just so you know, these numbers are from PubChem BioAssay (NCI).
